These entries and their values trace back to paper PMC10587126.

Listing of entries alongside the reported Peptide remaining.
experiment: Resistance to proteolytic degradation in fetal bovine serum; assay type: in vitro ADME; settings: 25% fetal bovine serum in water, 37 °C, LC peak area, time 0 = 100; 4 h; replicate 2
No end group written: not given here.

Substance	Peptide remaining
GLGALLNVIKSGL-NH2 [AV]	41.8
GLLKRIKTLL-NH2 [Anoplin, reference compound]	0.0
FLPLIGRVLSGIL-NH2 [Temporin A, reference compound]	0
FLGTLWGGAKGVF-NH2 [VP]	0.0
ILGTILGLLKGL-NH2 [Protonectin, reference compound]	0.0
SLLSLIRKLIT-NH2 [Decoralin, reference compound]	0.0
FLGALWNVAKSVF-NH2 [VmCT1, reference compound]	0.0
ILGAILNVLKSLG-NH2 [PV]	0
FLGAIGNVLKSIL-NH2 [TV]	0
FLPLLWRVASGVF-NH2 [VT]	0
SLGALINVLKSGG-NH2 [DV]	0.0
FLGSLWRKAGTVF-NH2 [VD]	45.3
